Target protein (sequence): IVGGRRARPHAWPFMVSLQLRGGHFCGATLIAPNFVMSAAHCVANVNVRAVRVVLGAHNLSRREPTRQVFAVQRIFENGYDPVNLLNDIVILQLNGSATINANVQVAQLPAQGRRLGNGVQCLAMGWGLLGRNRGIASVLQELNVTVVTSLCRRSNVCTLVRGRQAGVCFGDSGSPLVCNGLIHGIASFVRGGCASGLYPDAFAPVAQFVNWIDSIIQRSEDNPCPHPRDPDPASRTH
READOUT KIND: IC50 (µM)
Numbers only, in µM.

In plain terms, C=CC1C[C@]1(NC(=O)[C@@H]1C[C@@H](Oc2cc(-c3ccccc3)nc3cc(OC)ccc23)CN1C(=O)C(NC(=O)OC(C)(C)C)C(C)(C)C)C(=O)NS(=O)(=O)c1ccc(NC(C)=O)cc1 (stereo partly shown) [Compound 58] has a documented IC50 of 35

* * *

molecular target: porcine pancreatic elastase (Sus scrofa, UniProt P00772)
Sequence (P00772 27-266): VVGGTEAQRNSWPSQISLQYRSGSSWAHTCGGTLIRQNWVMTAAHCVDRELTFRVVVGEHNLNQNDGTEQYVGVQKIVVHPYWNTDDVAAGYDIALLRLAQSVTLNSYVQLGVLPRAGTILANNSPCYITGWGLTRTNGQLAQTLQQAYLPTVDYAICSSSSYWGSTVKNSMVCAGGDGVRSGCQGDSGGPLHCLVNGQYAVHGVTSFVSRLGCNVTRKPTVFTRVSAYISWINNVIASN
READOUT KIND: IC50

So, C=CC1C[C@]1(NC(=O)[C@@H]1C[C@@H](Oc2cc(-c3ccccc3)nc3cc(OC)ccc23)CN1C(=O)C(NC(=O)OC(C)(C)C)C(C)(C)C)C(=O)NS(=O)(=O)c1ccc(NC(C)=O)cc1 (stereo partly shown) ? Its IC50 was > 100 µM

* * *

biological target: HCV NS3/4A protease complex (Hepatitis C virus genotype 1a, UniProt P27958, C1454S/C1711G); assay: Recombinant HCV NS3/4A protease complex FRET peptide assay (strain not stated); assay type: biochemical; conditions: IC50, NS3/4A protease enzyme assay, strain not stated; activity ranges
Sequence (P27958 1027-1711, stated change not applied): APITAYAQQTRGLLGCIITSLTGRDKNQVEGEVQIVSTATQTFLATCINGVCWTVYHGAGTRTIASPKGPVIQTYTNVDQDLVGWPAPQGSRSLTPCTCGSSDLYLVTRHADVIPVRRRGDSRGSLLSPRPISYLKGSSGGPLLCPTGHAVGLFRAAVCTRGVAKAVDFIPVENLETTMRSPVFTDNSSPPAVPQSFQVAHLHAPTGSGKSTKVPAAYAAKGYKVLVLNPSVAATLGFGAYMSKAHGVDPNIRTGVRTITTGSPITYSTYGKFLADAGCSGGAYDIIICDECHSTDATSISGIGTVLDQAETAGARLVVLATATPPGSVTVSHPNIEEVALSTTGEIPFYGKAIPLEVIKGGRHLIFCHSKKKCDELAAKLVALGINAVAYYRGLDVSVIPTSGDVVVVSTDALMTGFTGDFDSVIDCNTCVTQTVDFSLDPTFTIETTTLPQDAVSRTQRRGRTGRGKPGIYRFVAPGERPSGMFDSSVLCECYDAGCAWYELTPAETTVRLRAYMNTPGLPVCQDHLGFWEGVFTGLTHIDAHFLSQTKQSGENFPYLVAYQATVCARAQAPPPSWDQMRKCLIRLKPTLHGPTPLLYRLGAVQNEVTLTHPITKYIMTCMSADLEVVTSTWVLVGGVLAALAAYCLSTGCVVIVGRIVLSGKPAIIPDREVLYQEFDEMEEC
Sequence (P27958 1027-1711, stated change not applied): as above
What IC50 was measured for each of the following?

COMPOUND | EXPERIMENTAL SYSTEM | MEASUREMENT
CCC1C[C@]1(NC(=O)C1C[C@@H](Oc2cc(-c3ccccc3)nc3cc(OC)ccc23)CN1C(=O)[C@@H](NC(=O)OCCF)C(C)C)C(=O)NS(=O)(=O)C1CC1 (some centres unmarked) [Compound 9] | HCV NS3/4A protease complex (Hepatitis C virus genotype 1a, UniProt P27958, C1454S/C1711G) | < 50 nM
C=CC1C[C@]1(NC(=O)[C@@H]1C[C@@H](Oc2cc(-c3ccccc3)nc3cc(OC)ccc23)CN1C(=O)[C@@H](NC(=O)OC(C)(C)C)C(C)(C)C)C(=O)NS(=O)(=O)CC1CC1 (stereo in doubt) [Compound 16] | HCV NS3/4A protease complex (Hepatitis C virus genotype 1a, UniProt P27958, C1454S/C1711G) | < 500 nM
COc1ccc2c(OC3C[C@@H](C(=O)NC4(C(=O)NS(=O)(=O)C5CC5)CCC45CC5)N(C(=O)[C@@H](NC(=O)OC(C)(C)C)C(C)(C)C)C3)cc(-c3ccccc3)nc2c1 (some centres unmarked) [Compound 141] | HCV NS3/4A protease complex (Hepatitis C virus genotype 1a, UniProt P27958, C1454S/C1711G) | < 500 nM
C=C[C@@H]1C[C@]1(NC(=O)C1CC(Oc2cc(-c3ccccc3)nc3cc(OC)ccc23)CN1C(=O)[C@@H](NC(=O)OC)C(C)(C)C)C(=O)NS(=O)(=O)C1CC1 (some centres unmarked) [Compound 113] | HCV NS3/4A protease complex (Hepatitis C virus genotype 1a, UniProt P27958, C1454S/C1711G) | < 50 nM
C=C1C[C@]1(NC(=O)[C@@H]1C[C@@H](Oc2cc(-c3ccccc3)nc3cc(OC)ccc23)CN1C(=O)C(NC(=O)OC(C)(C)C)C(C)(C)C)C(=O)NS(=O)(=O)c1cc(F)ccc1C (some centres unmarked) [Compound 46] | HCV NS3/4A protease complex (Hepatitis C virus genotype 1a, UniProt P27958, C1454S/C1711G) | < 50 nM

Quick one: give me IC50 for each item below, same order please.
1. C=C1C[C@]1(NC(=O)[C@@H]1C[C@@H](Oc2cc(-c3ccccc3)nc3cc(OC)ccc23)CN1C(=O)C(NC(=O)OC(C)(C)C)C(C)(C)C)C(=O)NS(=O)(=O)c1ccccc1F (some centres unmarked) [Compound 54]
2. C=CC1C[C@]1(NC(=O)[C@@H]1C[C@@H](Oc2cc(-c3ccccc3)nc3cc(OC)ccc23)CN1C(=O)[C@@H](NC(=O)OC(C)(C)C)C1CCCC1)C(=O)NS(=O)(=O)C1CCC1 (some centres unmarked) [Compound 72]
3. C=C[C@@H]1C[C@]1(NC(=O)C1C[C@@H](Oc2cc(-c3ccccc3)nc3cc(OC)ccc23)CN1C(=O)[C@@H](NC(=O)COc1ccc(OC)cc1)C(C)(C)C)C(=O)NS(=O)(=O)C1CC1 (some centres unmarked) [Compound 108]
4. C=C[C@@H]1C[C@]1(NC(=O)C1C[C@@H](Oc2cc(-c3ccccc3)nc3cc(OC)ccc23)CN1C(=O)[C@@H](NC(=O)c1ccco1)C(C)(C)C)C(=O)NS(=O)(=O)C1CC1 (some centres unmarked) [Compound 110]
5. C=CC1CC1(NC(=O)[C@@H]1C[C@@H](Oc2cc(-c3ccccc3)nc3cc(OC)ccc23)CN1C(=O)[C@H](CC1CCCCC1)NC(=O)OC(C)(C)C)C(=O)NS(=O)(=O)C(F)(F)F (some centres unmarked) [Compound 82]
6. C=C[C@@H]1C[C@]1(NC(=O)C1C[C@@H](Oc2cc(-c3ccccc3)nc3cc(OC)ccc23)CN1C(=O)[C@@H](NC(=O)CCC(=O)O)C(C)(C)C)C(=O)NS(=O)(=O)C1CC1 (some centres unmarked) [Compound 100]

**A:**
< 50 nM
< 500 nM
< 50 nM
< 50 nM
< 50000 nM
< 50 nM
